I'd be grateful if you could share measured Intrinsic activity for these entries.
# measured on: Alpha-2C adrenergic receptor (Homo sapiens)
# measurement protocol: Intrinsic activity at human adrenoceptor aplha 2C expressed in CHO cells by cytosensor microphysiometric analysis relative to (-)-noradrenaline
# Assay type: cell-based
Numbers only.

CC(Oc1ccccc1Br)C1=NCCN1 (centres undefined) = 0.87
CC(Oc1ccccc1C(F)(F)F)C1=NCCN1 (centres undefined) = 0.72
CC(C)Oc1ccccc1OC(C)C1=NCCN1 (centres undefined) = 0.7

Request: Intrinsic activity, test system Alpha-2C adrenergic receptor (Homo sapiens), entry CC(Oc1c(Cl)cccc1Cl)C1=NCCN1 (centres undefined)
0.8

###

# measured on: Alpha-2A adrenergic receptor (Homo sapiens)
# experimental context: CHO
# Description: Antagonist activity at human adrenoceptor aplha 2A expressed in CHO cells assessed as inhibition of clonidine-induced response by cytosensor microphysiometric analysis
assay endpoint: pKb

CC(Oc1ccccc1C(F)(F)F)C1=NCCN1 (stereo not given) = 6.42
CC(Oc1c(-c2ccccc2)cccc1-c1ccccc1)C1=NCCN1 (stereo not given) = 8
CC(Oc1ccccc1C(C)C)C1=NCCN1 (stereo not given) = 6.82
C=C(C)c1ccccc1OC(C)C1=NCCN1 (stereo not given) = 7

Proceed to the following item.
# query: pKb of entry CC(C)Oc1ccccc1OC(C)C1=NCCN1 (stereo not given)
6.82

Ref: ChEMBL document CHEMBL1955818
